// cross-study collection: IC50 for DNA-PK (Homo sapiens, UniProt P78527)
Quick note: give the figure in nM, leave out the unit.

Cn1cnc([C@H]2CC[C@@H](Oc3nc(N4CCOCC4)cc4ncccc34)CC2)n1 ... 11
c1cnc(NCc2cnn(-c3nc(N4CCOCC4)cc4ncccc34)c2)nc1 ... 213
c1cnc2cc(N3CCOCC3)nc(OCC3CCN(c4ncn[nH]4)CC3)c2c1 ... 26
O=c1nc(N2CCOCC2)[nH]c2c1cnn2-c1ccc2c(c1)OCCO2 ... 24000
Oc1cnc2cc(N3CCOCC3)nc(O[C@H]3CC[C@@H](n4cc(F)cn4)CC3)c2c1 ... 2
c1cnc(NC2CCCCN(c3nc(N4CCOCC4)cc4ncccc34)C2)nc1 (centres unmarked) ... 159

Checklist item: IC50 tested on DNA-PK (Homo sapiens, UniProt P78527), entry `Cn1cc([C@H]2CC[C@@H](Oc3nc(N4CCOCC4)cc4ncc(O)cc34)CC2)cn1` , value?
4

Checklist item: IC50 tested on DNA-PK (Homo sapiens, UniProt P78527), entry COc1ccc(C(O)c2cc(-c3cc(N)nc4cc(N5CCOCC5)ccc34)c(F)cc2Cl)nn1 (centres unmarked) , value?
4.7

###

// cross-study collection: log10 IC50 for DNA-PK (Homo sapiens, UniProt P78527)
Reminder: these figures are log10 of reported IC50, in nM before transformation.

Below: 2 molecules and their reported log10 IC50.
CN(C)CC1CCN(c2nc(N3CCOCC3)cc3ncccc23)CC1 ... 3.54
Oc1cnc2cc(N3CCOCC3)nc(O[C@H]3CC[C@@H](c4ccccc4)CC3)c2c1 ... 1.49

Give its log10 IC50 value. Item: `CS(=O)(=O)NCC1CCN(c2nc(N3CCOCC3)cc3ncccc23)CC1`
2.57

Give its log10 IC50 value. Item: `Fc1c[nH]c([C@H]2CC[C@@H](Oc3nc(N4CCOCC4)cc4ncccc34)CC2)n1`
1.04

Give its log10 IC50 value. Item: `CC[C@H]1C[C@]2(C1)C(=O)N(C)c1cnc3cc(F)c(-c4cnc(OCCNC(C)C)c(NS(C)(=O)=O)c4)cc3c12`
-0.52

Give its log10 IC50 value. Item: `c1ccc(NCC2CCN(c3nc(N4CCOCC4)cc4ncccc34)CC2)cc1`
2.70

Give its log10 IC50 value. Item: `Cc1cc2nncn2cc1Nc1ncc2c(n1)n(N1CC3CCC(C1)O3)c(=O)n2C`
-0.30
